The next entries give measured IC50 for Substance-P receptor (Homo sapiens, UniProt P25103).
RESULT_TYPE: IC50 (nM)

{"columns": ["MOLECULE", "RESULT_TYPE", "OPERATOR", "NUMBER"],
 "data": [
  ["O=C(NCc1cc(C(F)(F)F)cc(C(F)(F)F)c1)[C@@H](NCCN1CCCCC1)c1ccsc1", "IC50", ">", 100],
  ["CN(C)CCN[C@H](C(=O)NCc1cc(C(F)(F)F)cc(C(F)(F)F)c1)c1ccc(F)cc1", "IC50", "=", 650]
]}

====

# MEASUREMENT_PROTOCOL: Oral bioavailability in rat
# Format: ADME, organism-based
# TEST_CONTEXT: in vivo

{"columns": ["MOLECULE", "bioavailability"],
 "data": [
  ["O=C(NCc1cc(C(F)(F)F)cc(C(F)(F)F)c1)[C@@H](NCCN1CCCCC1)c1ccsc1", "4.5%"]
]}

====

# TESTED_TARGET: C-C chemokine receptor type 2 (Homo sapiens, UniProt P41597)
# Sequence (P41597 whole entry): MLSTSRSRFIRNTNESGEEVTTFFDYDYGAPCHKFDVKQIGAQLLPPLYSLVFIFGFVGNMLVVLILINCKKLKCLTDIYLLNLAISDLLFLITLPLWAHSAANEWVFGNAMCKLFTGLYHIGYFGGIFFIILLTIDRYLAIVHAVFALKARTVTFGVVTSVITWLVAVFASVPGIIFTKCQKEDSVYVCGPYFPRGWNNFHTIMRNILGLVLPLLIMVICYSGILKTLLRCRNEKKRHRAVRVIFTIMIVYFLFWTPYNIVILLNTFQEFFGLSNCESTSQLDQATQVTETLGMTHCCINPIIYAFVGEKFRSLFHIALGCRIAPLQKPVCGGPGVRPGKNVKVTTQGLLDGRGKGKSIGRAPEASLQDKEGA
# MEASUREMENT_PROTOCOL: Binding affinity to CCR2 in human monocytes
# Format: cell-based
pIC50: −log10 of the molar value.
RESULT_TYPE: pIC50

{"columns": ["MOLECULE", "TESTED_TARGET", "RESULT_TYPE", "NUMBER"],
 "data": [
  ["O=C(NCc1cc(C(F)(F)F)cc(C(F)(F)F)c1)[C@@H](NCCN1CCCCC1)c1ccsc1", "C-C chemokine receptor type 2 (Homo sapiens, UniProt P41597)", "pIC50", 7.52]
]}

====

# MEASUREMENT_PROTOCOL: Clearance in rat
# Format: ADME, organism-based
# TEST_CONTEXT: in vivo

{"columns": ["MOLECULE", "DISPLAY_UNIT", "clearance"],
 "data": [
  ["O=C(NCc1cc(C(F)(F)F)cc(C(F)(F)F)c1)[C@@H](NCCN1CCCCC1)c1ccsc1", "mL/min/kg", 80]
]}

====

# TESTED_TARGET: C-C chemokine receptor type 2 (Homo sapiens, UniProt P41597)
# MEASUREMENT_PROTOCOL: Displacement of [125I]MCP1 from human CCR2 expressed in CHO cells
# Assay type: cell-based
pIC50: −log10 of the molar value.

{"columns": ["MOLECULE", "pIC50"],
 "data": [
  ["CN(C)CCN[C@H](C(=O)NCc1cc(C(F)(F)F)cc(C(F)(F)F)c1)c1ccccc1", 6.00],
  ["CC1CCN(CCN[C@H](C(=O)NCc2cc(C(F)(F)F)cc(C(F)(F)F)c2)c2ccccc2)CC1", 6.12],
  ["O=C(NCc1cc(C(F)(F)F)cc(C(F)(F)F)c1)C(NCCN1CCCC1)c1ccccc1 (centres undefined)", 6.28],
  ["O=C(NCc1cc(C(F)(F)F)cc(C(F)(F)F)c1)[C@@H](NCCN1CCCCC1)c1ccsc1", 7.41],
  ["CC1CCCCN1CCN[C@H](C(=O)NCc1cc(C(F)(F)F)cc(C(F)(F)F)c1)c1ccccc1 (some centres undefined)", 6.08],
  ["Nc1ccc(C(F)(F)F)cc1C(=O)NCC(=O)NCC1CCN(Cc2ccc(Cl)cc2)CC1", 6.70],
  ["O=C(NCc1cc(C(F)(F)F)cc(C(F)(F)F)c1)[C@@H](NCCN1CCC(c2ccccc2)CC1)c1ccccc1", 6.09],
  ["CN(C)CCNC(C(=O)NCc1cc(C(F)(F)F)cc(C(F)(F)F)c1)c1ccccc1 (centres undefined)", 5.83],
  ["CN(C)CCN[C@H](C(=O)NCc1cc(C(F)(F)F)cc(C(F)(F)F)c1)c1ccc(F)cc1", 6.11]
]}
